Data provenance is patent US7776883B2.

Consider the following molecules and their measured melting point readings.

[
  {
    "test_smiles": "CCOC(=O)C(=O)CC(=O)c1cn(Cc2cccc(F)c2)c2ccccc2c1=O",
    "melting point": "174 to 175 °C"
  },
  {
    "test_smiles": "O=C(O)C(=O)CC(=O)c1cn(Cc2c(F)cccc2F)c2ccccc2c1=O",
    "melting point": "171 to 172 °C"
  },
  {
    "test_smiles": "CCOC(=O)C(=O)CC(=O)c1cn(Cc2ccc(F)cc2)c2c(Cl)cccc2c1=O",
    "melting point": "164 to 165 °C"
  },
  {
    "test_smiles": "CCOC(=O)C(=O)CC(=O)c1c[nH]c2ccccc2c1=O",
    "melting point": "235 to 237 °C"
  },
  {
    "test_smiles": "CCOC(=O)C(=O)CC(=O)c1cn(Cc2ccccc2)c2ccccc2c1=O",
    "melting point": "141 to 142 °C"
  },
  {
    "test_smiles": "CCOC(=O)C(=O)CC(=O)c1ccc2c(c1)c(=O)c(CCC(=O)O)cn2Cc1ccc(F)cc1",
    "melting point": "177 to 180 °C"
  },
  {
    "test_smiles": "O=C(O)C(=O)CC(=O)c1cn(Cc2ccc3ccccc3c2)c2ccccc2c1=O",
    "melting point": "212 to 213 °C"
  },
  {
    "test_smiles": "COc1ccc(Cn2cc(C(=O)CC(=O)C(=O)O)c(=O)c3ccccc32)cc1",
    "melting point": "149 to 150 °C"
  },
  {
    "test_smiles": "CCOC(=O)C(=O)CC(=O)c1cn(Cc2ccc3ccccc3c2)c2ccccc2c1=O",
    "melting point": "153 to 154 °C"
  }
]

###

Below: a set of entries, each annotated with reported melting point.
readout_type: melting point

[
  {
    "test_smiles": "O=C(O)C(=O)CC(=O)c1cn(Cc2ccc(O)cc2)c2ccccc2c1=O",
    "readout_type": "melting point",
    "reported": "206 to 208 °C"
  },
  {
    "test_smiles": "CCOC(=O)C(=O)CC(=O)c1cn(Cc2ccc([N+](=O)[O-])cc2)c2ccccc2c1=O",
    "readout_type": "melting point",
    "reported": "175 to 176 °C"
  },
  {
    "test_smiles": "O=C(O)C(=O)CC(=O)c1cn(Cc2ccccc2F)c2ccccc2c1=O",
    "readout_type": "melting point",
    "reported": "172 to 174 °C"
  },
  {
    "test_smiles": "CCOC(=O)C(=O)CC(=O)c1cn(Cc2ccc(F)cc2)c2cc(F)ccc2c1=O",
    "readout_type": "melting point",
    "reported": "151 to 152 °C"
  },
  {
    "test_smiles": "O=C(O)C(=O)CC(=O)c1cn(Cc2ccccc2F)c2cc(Cl)ccc2c1=O",
    "readout_type": "melting point",
    "reported": "187 to 189 °C"
  },
  {
    "test_smiles": "COc1ccccc1Cn1cc(C(=O)CC(=O)C(=O)O)c(=O)c2ccccc21",
    "readout_type": "melting point",
    "reported": "173 to 175 °C"
  },
  {
    "test_smiles": "O=C(O)C(=O)CC(=O)c1cn(Cc2ccc3ccccc3n2)c2ccccc2c1=O",
    "readout_type": "melting point",
    "reported": "> 300 °C"
  },
  {
    "test_smiles": "O=C(O)C(=O)CC(=O)c1cn(Cc2ccc(F)cc2)c2cc(Cl)c(Cl)cc2c1=O",
    "readout_type": "melting point",
    "reported": "175 to 177 °C"
  },
  {
    "test_smiles": "CCOC(=O)C(=O)CC(=O)c1cn(Cc2ccc(OC)cc2)c2ccccc2c1=O",
    "readout_type": "melting point",
    "reported": "154 to 156 °C"
  }
]
